- Test Description: viability loss in pontine glioma line – cell-based, SU-DIPG-XXV, MIPE5.0, CellTiter-Glo, qHTS, dose response (AID 1347065);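 also: cells exposed to compound for 48 hours before ATP readout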
- Test Conditions: CellTiter-Glo ATP luminescence
Records with an inconclusive call do not appear. Activity calls are given as the source filed them. The limit is not given here; nearly all actives have AC50 up to about 26 µM.
One label from this list, please: class 1 (active), class 0 (inactive)

What did the test return for N#CC(c1ccnc(NCCc2cccnc2)n1)c1nc2ccccc2s1 (stereo not drawn) ?
class 1

Could you kindly confirm the outcome this assay logged for `CON(C)C(=O)N1N=C(c2cc(F)ccc2F)S[C@@]1(CCCN)c1ccccc1` ?
class 1

What classification did `CC(C)(Cc1ccc2ccccc2c1)NC[C@@H](O)COc1cccc(Cl)c1C#N` end up with in this test?
class 1

Tell me the recorded outcome of this test for `COc1cc(/C=C(\C#N)C(=O)Nc2nnc(C(F)(F)F)s2)ccc1OCc1ccc(C(F)(F)F)cc1C(F)(F)F` .
class 1

Field: outcome | Entry: `Nc1ccc(-c2ccc3ncc4ccc(=O)n(-c5cccc(C(F)(F)F)c5)c4c3c2)cn1`
class 1

Outcome logged for `CN(C)CCN1C(=O)c2cccc3cc(N)cc(c23)C1=O` in this assay:
class 1

Record lookup: outcome of this test for `COc1cc2nc(N3CCCN(C)CC3)nc(NC3CCN(Cc4ccccc4)CC3)c2cc1OC` ?
class 1

Could you please tell me the result logged for `C[C@@H](c1ccc2nccn2c1)n1nnc2ncc(-c3cnn(C)c3)nc21` in this assay?
class 0

Kindly provide the recorded test outcome for the following molecule: `CNC(=O)CCc1cc(-c2ccc(-c3ccc(C(F)(F)F)cc3)cc2)n(-c2ccc(N3CCNCC3)cc2)n1`
class 1

Each molecule tested received a call. Report the one for `CC(=O)NCCC(=O)N[C@@H](CCC(N)=O)C(=O)N[C@@H](CO)C(=O)N[C@@H](CCC(N)=O)C(=O)N[C@@H](CCC(N)=O)C(=O)N[C@H](C(=O)N[C@@H](Cc1ccccc1)C(=O)N[C@]1(C)CCCCCC/C=C\CCC[C@@](C)(C(=O)N[C@@H](CCC(N)=O)C(=O)N[C@@H](CC(N)=O)C(N)=O)NC(=O)[C@H](CC(C)C)NC(=O)[C@H](CC(C)C)NC(=O)[C@@H](CCCNC(=N)N)NC(=O)[C@H](Cc2c[nH]c3ccccc23)NC(=O)[C@H](CC(C)C)NC(=O)[C@H](CC(N)=O)NC1=O)[C@H](C)O` .
class 0

What was the test verdict on `Fc1cccc(-n2cnc3c(NCc4nc5c(F)c(F)ccc5[nH]4)nc(N4CCOCC4)nc32)c1` ?
class 1

Field: outcome | Entry: `Cn1cc(-c2ccc(F)c(C(F)(F)F)c2)nc1C1CCN(c2ncnc3[nH]ncc23)CC1`
class 0

Fill in: this test's call for CCCCCCCCCCCCCCCCOCCCOP(=O)(O)COC(CO)Cn1ccc(N)nc1=O (stereo not drawn) is ___
class 0

Dear all, I need the recorded test outcome for `Clc1ccc(C2(c3ccc(-c4cn[nH]c4)cc3)CCNCC2)cc1` , thank you.
class 1

Assay outcome for `COc1cc(F)c(C(C)C)cc1-c1ccc(C(F)(F)F)cc1CN1C(=O)O[C@H](c2cc(C(F)(F)F)cc(C(F)(F)F)c2)[C@@H]1C` : what was it?
class 0

Answer briefly: the call reported for `N#CCNC(=O)c1ccc(-c2ccnc(Nc3ccc(N4CCOCC4)cc3)n2)cc1` in this assay.
class 1

Which outcome did this test record for the molecule `Cc1ccc(F)c(NC(=O)Nc2ccc(-c3cccc4[nH]nc(N)c34)cc2)c1` ?
class 1

Dear all, I need the recorded test outcome for `O=C1NC(=O)/C(=C/c2ccc3nccc(-c4ccncc4)c3c2)S1` , thank you.
class 1

Answer briefly: the call reported for `C=CCn1c(=O)c2cnc(Nc3ccc(N4CCN(C)CC4)cc3)nc2n1-c1cccc(C(C)(C)O)n1` in this assay.
class 1

How was `Cc1nc(-c2cn3c(n2)-c2ccc(-c4cnn(C(C)(C)C(N)=O)c4)cc2OCC3)n(C(C)C)n1` classified in this test?
class 1

Which outcome was entered for the molecule `C=CC(=O)Nc1cc(N2CCN(CC)CC2)ccc1Nc1cc(N(C)C(=O)Nc2c(Cl)c(OC)cc(OC)c2Cl)ncn1` in this test?
class 1

Can you look up the reported call for `CC(C)c1cnn2c(NCc3ccccc3)cc(N[C@@H](CO)[C@H](O)CO)nc12` for me?
class 1

Per the records of this test, what outcome belongs to `CC1=C[C@@H]2[C@H]([C@@H](O)C[C@@]3(C)[C@H]2C[C@@H](C)[C@]3(O)C(=O)CO)[C@@]2(C)Cc3cnn(-c4ccccc4)c3C=C12` ?
class 1

Which outcome was assigned to `O=C(NO)c1cnc(NC2(c3ccccc3)CC2)nc1` in this test?
class 1

Please state the recorded outcome for this molecule: `COCCCc1sc(-c2ccccc2)nc1C(=O)Nc1ccccc1-c1nc2cc(CN3CCCC3)cnc2s1`
class 1

Per the assay record, what outcome was assigned to `COc1cc2c(NC3CCN(C(C)C)CC3)nc(C3CCCCC3)nc2cc1OCCCN1CCCC1` ?
class 1

// param item: `COc1cc(F)c(F)c(Nc2ccc(I)cc2F)c1NS(=O)(=O)C1(C[C@H](O)CO)CC1` ; yields the recorded call
class 1

# lookup: test call for `COc1ccc(C2=N[C@H](c3ccc(Cl)cc3)[C@H](c3ccc(Cl)cc3)N2C(=O)N2CCNC(=O)C2)c(OC(C)C)c1`
class 1

What did the test return for `COc1cc2ncnc(-n3nc(-c4ccccn4)nc3N)c2cc1OC` ?
class 1

Kindly provide the recorded test outcome for the following molecule: `C=CCN(/C=C1\C(=O)O[C@@H](COC)[C@]2(C)C1=C(O)C(=O)C1=C2[C@@H](OC(C)=O)C[C@]2(C)C(=O)CC[C@H]12)CC=C`
class 1

# fetch the recorded call for `O=C1NC(=O)/C(=C/c2ccc3c(c2)OC(F)(F)O3)S1` here
class 0

Dear colleague, could you share the recorded outcome for CC[C@@H](C)Nc1cc(C(=O)NC2CC3CC[C@@H](C2)N3c2ccc(C(=O)C3CC3)cn2)c(C)cc1C(N)=O (stereo partly drawn) when you have a moment?
class 1

How was `Nc1nc(Nc2ccc(S(N)(=O)=O)cc2)nn1C(=O)c1c(F)cccc1F` classified in this test?
class 1
